tested on: SW48 human colorectal cancer cells (MSI-H cancer cells); experiment: SW48 cell viability, CellTiter-Glo, 120 hours (Example B); conditions: SW48 cell viability, 120 hours incubation; Table 2
test readout: SW48 pCC50

{"compound": "Cc1nc2cc(S(=O)(=O)N(C)c3ccc([C@H]4C[C@@H](N5CCOCC5)C[C@@H](C(=O)Nc5ccc(C(F)(F)F)cc5F)[C@@H]4C(=O)O)cc3)ccc2n1C (single isomer, unassigned) [Example 337]", "test readout": "SW48 pCC50", "value": 6.8}
{"compound": "Cc1nc2cc(S(=O)(=O)N(C)c3ccc([C@@H]4C[C@@H]5COC[C@@H]5[C@@H](C(=O)Nc5ccc(C(F)(F)F)cc5F)[C@@H]4C(=O)O)cc3)ccc2n1C (single isomer, unassigned)", "test readout": "SW48 pCC50", "value": 5.7}
{"compound": "Cc1nc2cc(S(=O)(=O)N(C)c3ccc([C@H]4C[C@@H](O[C@H]5CCOC5)C[C@@H](C(=O)Nc5ccc(C(F)(F)F)cc5F)[C@@H]4C(=O)O)cc3)ccc2n1C (stereo in doubt)", "test readout": "SW48 pCC50", "value": 5.1}
{"compound": "Cc1nc2cc(S(=O)(=O)N(C)c3ccc([C@H]4CCC[C@@H](C(=O)Nc5ccc(C(F)(F)F)cc5F)[C@@H]4C(=O)O)c(F)c3)ccc2n1C (single isomer, unassigned) [Example 374]", "test readout": "SW48 pCC50", "value": 6.4}
{"compound": "Cc1nc2cc(S(=O)(=O)N(C)c3ccc([C@H]4C[C@@H](N5CCC[C@@H](F)C5)C[C@@H](C(=O)Nc5ccc(C(F)(F)F)cc5F)[C@@H]4C(=O)O)cc3)ccc2n1C (single isomer, unassigned) [Example 347]", "test readout": "SW48 pCC50", "value": 5.2}
{"compound": "Cc1nc2cc(S(=O)(=O)N(C)c3ccc([C@H]4CCC[C@@H](C(=O)Nc5ccc(C(F)(F)F)cc5F)[C@@H]4C(=O)O)cc3)ccc2n1C (single isomer, unassigned) [Example 83]", "test readout": "SW48 pCC50", "value": 6.6}
{"compound": "Cc1nc2cc(S(=O)(=O)N(C)c3ccc([C@H]4CCC[C@@H](C(=O)Nc5ccc(C(F)(F)F)cc5F)[C@@H]4C(=O)O)c(F)c3)ccc2n1C (single isomer, unassigned) [Example 375]", "test readout": "SW48 pCC50", "value": 4.7}
{"compound": "Cc1nc2cc(S(=O)(=O)N(C)c3ccc([C@H]4CCC[C@@H](C(=O)Nc5ccc(C(F)(F)F)cc5F)[C@@H]4C(=O)O)cc3)ccc2n1C (single isomer, unassigned) [Example 84]", "test readout": "SW48 pCC50", "value": 5.3}
{"compound": "CN(c1ccc([C@H]2CCC[C@@H](C(=O)Nc3ccc(C(F)(F)F)cc3F)[C@@H]2C(=O)O)cc1)S(=O)(=O)c1cc(I)c2occc2c1", "test readout": "SW48 pCC50", "value": 5.4}
{"compound": "Cc1nc2cc(S(=O)(=O)N(C)c3ccc([C@H]4C[C@@H](N5CCC[C@@H](F)C5)C[C@@H](C(=O)Nc5ccc(C(F)(F)F)cc5F)[C@@H]4C(=O)O)cc3)ccc2n1C (single isomer, unassigned) [Example 376]", "test readout": "SW48 pCC50", "value": 7.1}
{"compound": "Cc1nc2cc(S(=O)(=O)N(C)c3ccc([C@H]4C[C@@H]5OCC[C@@H]5[C@@H](C(=O)Nc5ccc(C(F)(F)F)cc5F)[C@@H]4C(=O)O)cc3)ccc2n1C (single isomer, unassigned) [Example 157]", "test readout": "SW48 pCC50", "value": 6.9}
{"compound": "Cc1nc2cc(S(=O)(=O)N(C)c3ccc([C@H]4CCC[C@@H](C(=O)Nc5ccc(C(F)(F)F)cc5F)[C@@H]4C(=O)O)cc3)cc(C3CCCN(C)C3)c2n1C (relative stereo)", "test readout": "SW48 pCC50", "value": 6.5}
{"compound": "CN(c1ccc([C@H]2CCC[C@@H](C(=O)Nc3ccc(C(F)(F)F)cc3F)[C@@H]2C(=O)O)cc1)S(=O)(=O)c1ccc(-c2ccn(C)n2)cc1", "test readout": "SW48 pCC50", "value": 6.1}
{"compound": "Cc1nc2cc(S(=O)(=O)N(C)c3ccc([C@H]4C[C@@H](N5CCOCC5)C[C@@H](C(=O)Nc5ccc(C(F)(F)F)cc5F)[C@@H]4C(=O)O)cc3)ccc2n1C (single isomer, unassigned) [Example 340]", "test readout": "SW48 pCC50", "value": 5.1}
{"compound": "Cc1nc2cc(S(=O)(=O)N(C)c3ccc([C@H]4C[C@@H]5OCC[C@@H]5[C@@H](C(=O)Nc5ccc(C(F)(F)F)cc5F)[C@@H]4C(=O)O)cc3)ccc2n1C (single isomer, unassigned) [Example 158]", "test readout": "SW48 pCC50", "value": 5.4}
